Examples of molecules with documented Ki follow.
molecular target: rat MCH-1 (Rattus norvegicus); experiment: Radioligand binding assay at cloned rat MCH1 receptor ([3H] Compound A); parameters: host or cells: Peak rapid 293 (Peakr293) cells, transient calcium phosphate transfection, membranes; settings: cloned rat MCH1 receptor, membranes from Peakr293 cells, 0.08 nM [3H] Compound A; read-out: Ki (nM) rMCH1
reported-metric: Ki (nM)

1) CC(C)C(=O)Nc1cccc(C2CCN(CCC(Oc3ccccc3)c3ccc4c(c3)CCC4)CC2)c1 (stereo not shown) [Example 156]
8.8
2) Cc1onc(-c2ccccc2Cl)c1C(=O)NCCCN1CCC(c2cccc(NC(=O)C(C)C)c2)CC1 [Example 331]
51.3
3) CCSc1ncccc1C(=O)N[C@@H](CCN1CCC(c2cccc(NC(=O)C(C)C)c2)CC1)c1ccccc1 [Example 307]
97.4
4) CC(C)C(=O)Nc1cccc(C2CCN(CCCOc3cccc(Cl)c3)CC2)c1 [Example 344]
44.6

###

biological target: rat MCH-1 (Rattus norvegicus, UniProt P97639); assay: Radioligand binding assay at cloned rat MCH1 receptor ([3H] Compound A); design: host or cells: Peak rapid 293 (Peakr293) cells, transient calcium phosphate transfection, membranes; conditions: cloned rat MCH1 receptor; 0.08 nM [3H] Compound A; Peakr293 cell membranes; read-out: Ki (nM) rMCH1
Sequence (P97639 whole entry): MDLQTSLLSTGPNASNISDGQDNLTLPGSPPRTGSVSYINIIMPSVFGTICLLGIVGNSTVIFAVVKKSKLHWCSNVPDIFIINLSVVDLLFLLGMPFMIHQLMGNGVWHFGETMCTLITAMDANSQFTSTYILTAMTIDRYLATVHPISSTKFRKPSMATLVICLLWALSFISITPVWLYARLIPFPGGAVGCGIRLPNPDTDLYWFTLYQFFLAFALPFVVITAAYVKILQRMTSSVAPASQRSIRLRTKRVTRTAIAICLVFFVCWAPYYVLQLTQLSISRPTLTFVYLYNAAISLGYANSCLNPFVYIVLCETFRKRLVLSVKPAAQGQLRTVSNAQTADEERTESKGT
reported-metric: Ki (nM)

1) CC(C)C(=O)Nc1cccc(C2CCN(Cc3ccc4cc[nH]c4c3)CC2)c1
403
2) COC(=O)c1sccc1S(=O)(=O)NCCCN1CCC(c2cccc(NC(=O)C(C)C)c2)CC1
287
3) Cc1cccc2c(CCN3CCC(c4cccc(NC(=O)C(C)C)c4)CC3)c(-c3ccccc3)[nH]c12
44.6
4) Cc1noc(C)c1S(=O)(=O)NCCCN1CCC(c2cccc(NC(=O)C(C)C)c2)CC1
196

###

molecular target: rat MCH-1 (Rattus norvegicus, UniProt P97639); assay: Radioligand binding assay at cloned rat MCH1 receptor ([3H] Compound A); parameters: host or cells: Peak rapid 293 (Peakr293) cells, transient calcium phosphate transfection, membranes; settings: cloned rat MCH1 receptor, membranes from Peakr293 cells, 0.08 nM [3H] Compound A; read-out: Ki (nM) rMCH1
reported-metric: log10 of Ki (log10 of the value in nM)

1. CC(C)C(=O)Nc1cccc(C2CCN(CCC(Oc3ccc(F)cc3)c3ccc(Br)cc3)CC2)c1 (stereo not shown) [Example 160]
0.79
2. Cc1ccc(C(=O)CCCN2CCC(c3cccc(NC(=O)C(C)C)n3)CC2)cc1C [Example 264]
1.74
3. CC(C)C(=O)Nc1cccc(C2CCN(C[C@H](C)COc3ccccc3F)CC2)c1 [Example 362]
2.45
4. CCCOc1ccc(CN2CCC(c3cccc(NC(=O)C(C)C)c3)CC2)c2ccccc12 [Example 197]
1.80
5. COc1ccc2[nH]c(-c3ccccc3)c(CCCCN3CCC(c4cccc(NC(=O)C(C)C)c4)CC3)c2c1 [Example 92]
0.90
6. CC(C)C(=O)Nc1cccc(C2CCN(CC[C@H](NC(=O)c3cccnc3Oc3ccccc3)c3ccccc3)CC2)c1 [Example 315]
1.06
7. Cc1ccc(Sc2ccc(CN3CCC(c4cccc(NC(=O)C(C)C)c4)CC3)cc2[N+](=O)[O-])cc1 [Example 262]
1.81
8. COc1ccc(C(CCN2CCC(c3cccc(NC(=O)C(C)C)c3)CC2)Oc2cccc(C(C)=O)c2)cc1 (stereo not shown) [Example 179]
1.92
9. CC(C)C(=O)Nc1cccc(C2CCN(Cc3c[nH]nc3-c3ccc(C(F)(F)F)cc3)CC2)c1 [Example 216]
2.91
10. CC(C)C(=O)Nc1cccc(C2CCN(Cc3c(OCc4cccc(Cl)c4)ccc4ccccc34)CC2)c1 [Example 192]
1.91
11. CC(C)C(=O)Nc1cccc(C2CCN(C[C@@H](C)COc3cccc(F)c3)CC2)c1 [Example 366]
2.81
12. CC(C)C(=O)Nc1cccc(C2CCN(C[C@@H](C)COc3ccccc3Br)CC2)c1 [Example 372]
2.55
13. CC(C)C(=O)Nc1cccc(C2CCN(C[C@H](Oc3cccc(Cl)c3)c3ccccc3)CC2)c1 [Example 339]
2.95
14. Cc1onc(-c2ccccc2)c1C(=O)NCCCN1CCC(c2cccc(NC(=O)C(C)C)c2)CC1 [Example 325]
1.47
15. CC(C)C(=O)Nc1cccc(C2CCN(CCCOc3ccccc3Br)CC2)c1 [Example 350]
1.08
16. Cc1onc(-c2c(Cl)cccc2Cl)c1C(=O)OC(CCCN1CCC(c2cccc(NC(=O)C(C)C)c2)CC1)c1ccccc1 (stereo not shown) [Example 284]
1.21
